- Test system: rat hepatoma cells (H4IIE)
- Format: cell-based
Parameter: CC50

# query: CC50 of entry CN(CCCN)CCCNC(=O)CCNC(=O)c1cc(NC(=O)c2cc(NC(=O)c3cc(NC(=O)c4cc(NC(=O)CCNC(=O)c5cc(NC(=O)c6cc(NC(=O)CCCNC(=O)c7cc(NC(=O)c8cc(NC(=O)c9cc(NC(=O)CCNC(=O)c%10cc(NC(=O)c%11cc(NC(=O)c%12nccn%12C)cn%11C)cn%10C)cn9C)cn8C)cn7C)cn6C)cn5C)cn4C)cn3C)cn2C)cn1C [Polyamide 1028, ImPPβPPPγPPβPPPPβTa]
> 300 µM

Recorded values, source patent US9290551B2.
